These data points were gathered from patent US20250236639A1.

Molecular target: GABAA receptor
Assay: Steroid inhibition of [35S]-TBPS binding, rat brain cortical membranes
Conditions: 3 nM [35S]-TBPS, in the presence of 5 mM GABA
Assign IC50 to each entry below.

Query string: Please look up its IC50: CC[C@@]1(O)CC[C@H]2[C@@H](CC[C@@H]3[C@@H]2CC[C@@]2(C)[C@H]3CC[C@@H]2[C@@](C)(O)Cn2cc(C#N)cn2)C1
Result string: ≥ 1000 nM

Query string: What do we get for COC[C@@]1(O)CC[C@H]2[C@H](CC[C@@H]3[C@@H]2CC[C@]2(C)[C@@H](C(C)(Cn4cc(C#N)cn4)OC)CC[C@@H]32)C1 (stereo in doubt) [Compound 33] ?
Result string: 100 to 1000 nM

Query string: And what about the molecule C[C@@H]1C[C@H]2[C@H](CC[C@@H]3[C@@H]2CC[C@@]2(C)[C@H]3CC[C@@H]2[C@@](C)(O)Cn2cc(C#N)cn2)C[C@]1(C)O ?
Result string: 100 to 1000 nM

Query string: Please give the result for CCC[C@@]1(O)CC[C@@]2(C)[C@@H](CC[C@@H]3[C@@H]2CC[C@@]2(C)[C@H]3CC[C@@H]2[C@](C)(O)Cn2cc(C#N)cn2)C1 too.
Result string: 100 to 1000 nM

Query string: Try COC[C@@H]1C[C@H]2[C@H](CC[C@@H]3[C@@H]2CC[C@@]2(C)[C@H]3CC[C@@H]2[C@@](C)(O)Cn2cc(C#N)cn2)C[C@]1(C)O [Compound 59A] next.
Result string: 100 to 1000 nM

----------
Target: GABAA receptor
Assay: Steroid inhibition of [35S]-TBPS binding, rat brain cortical membranes
Conditions: 3 nM [35S]-TBPS, in the presence of 5 mM GABA
Readout Name: IC50

Query string: Which value of IC50 has been reported for COC[C@@]1(O)CC[C@H]2[C@H](CC[C@@H]3[C@@H]2CC[C@]2(C)[C@@H](C(F)(F)Cn4cc(C#N)cn4)CC[C@@H]32)C1 in the records?
Result string: < 100 nM

Query string: Check CCC[C@@]1(O)CC[C@H]2[C@H](CC[C@@H]3[C@@H]2CC[C@@]2(C)[C@H]3CC[C@@H]2[C@@](C)(O)Cn2ccc(C#N)n2)C1 too.
Result string: 100 to 1000 nM

Query string: Entry to check: COC[C@@H]1C[C@H]2[C@H](CC[C@@H]3[C@@H]2CC[C@@]2(C)[C@H]3CC[C@@H]2[C@](C)(O)Cn2cc(C#N)cn2)C[C@]1(C)O [Compound 58A]
Result string: < 100 nM

Query string: Also need COC[C@H]1C[C@H]2[C@H](CC[C@@H]3[C@@H]2CC[C@@]2(C)[C@H]3CC[C@@H]2[C@@](C)(O)Cn2cc(C#N)cn2)C[C@]1(C)O , thanks.
Result string: 100 to 1000 nM
